Data provenance is patent US20250059182A1.

Target: recombinant human SOS1 polypeptide (amino acids 560-1049) (Homo sapiens, UniProt Q07889)
Construct: corresponding to amino acids 560-1049, expressed in E. Coli; made in house; host or cells: E. coli
Sequence (Q07889 560-1049): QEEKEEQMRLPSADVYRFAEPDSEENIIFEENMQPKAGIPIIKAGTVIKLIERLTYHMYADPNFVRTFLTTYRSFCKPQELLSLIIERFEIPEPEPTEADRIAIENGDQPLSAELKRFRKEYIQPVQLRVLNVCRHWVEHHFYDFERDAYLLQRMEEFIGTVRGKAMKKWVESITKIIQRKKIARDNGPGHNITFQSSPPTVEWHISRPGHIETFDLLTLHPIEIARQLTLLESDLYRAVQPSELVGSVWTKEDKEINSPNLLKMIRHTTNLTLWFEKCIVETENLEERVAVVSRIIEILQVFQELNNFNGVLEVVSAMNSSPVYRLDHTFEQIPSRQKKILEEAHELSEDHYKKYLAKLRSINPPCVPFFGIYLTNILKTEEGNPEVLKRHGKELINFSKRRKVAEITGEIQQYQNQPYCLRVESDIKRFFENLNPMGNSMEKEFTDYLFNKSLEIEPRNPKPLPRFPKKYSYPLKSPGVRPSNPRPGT
Assay: HTRF displacement assay: inhibition of labeled tracer binding to SOS1
Settings: Table A, Morrison equation for competitive binding
Criterion: Ki strictly less than 2 nM. Met: YES. Not met: NO.

# molecule, category
measured = [
    ("Cc1nnc(N[C@H](C)c2cccc(C(F)(F)F)c2F)c2cc(N3CCC34CN(C)C4)c(F)cc12", "YES"),
    ("Cc1c(C#N)cccc1[C@@H](C)Nc1nnc(C)c2cnc(N3CC[C@H](NS(C)(=O)=O)C3)cc12", "NO"),
    ("COc1cc2c(C)nnc(N[C@H](C)c3cccc(C#N)c3C)c2cc1OC", "NO"),
    ("Cc1c(C#N)cccc1[C@@H](C)Nc1nnc(C)c2cc(F)c(N3CCN4CCOC[C@@H]4C3)cc12", "NO"),
    ("Cc1c([C@@H](C)Nc2nnc(C)c3cnc(N4CCN(C)CC4)cc23)cc(N)nc1C(F)(F)F", "NO"),
    ("Cc1c(C#N)cccc1[C@@H](C)Nc1nnc(C)c2cnc(N(C)[C@@H]3CCCNC3)cc12", "YES"),
    ("Cc1c(C#N)cccc1[C@@H](C)Nc1nnc(C)c2cnc(N3C[C@H]4[C@@H]3CCN4C)cc12 (single isomer, unassigned) [Example 6-9]", "NO"),
]

* * *

Entries and their measured Ki follow.
target: recombinant human SOS1 polypeptide (amino acids 560-1049) (Homo sapiens); construct: corresponding to amino acids 560-1049, expressed in E. Coli; made in house; host or cells: E. coli; test: HTRF displacement assay: inhibition of labeled tracer binding to SOS1; details: Table A, Morrison equation for competitive binding

# compound, tgt, Ki / nM
measured = [
    ("Cc1nnc(N[C@H](C)c2cccc(C(F)(F)F)c2F)c2cc(N(C)C3CCN(C)CC3)ncc12", "recombinant human SOS1 polypeptide (amino acids 560-1049) (Homo sapiens)", 0.788),
    ("CO[C@@H]1CCN(c2cc3c(N[C@H](C)c4cccc(C#N)c4C)nnc(C)c3cn2)C1", "recombinant human SOS1 polypeptide (amino acids 560-1049) (Homo sapiens)", 2.01),
    ("Cc1nnc(N[C@H](C)c2cccc(C(F)(F)F)c2F)c2cc(N(C)[C@H]3CCNC3)ncc12", "recombinant human SOS1 polypeptide (amino acids 560-1049) (Homo sapiens)", 0.505),
    ("CCN1CCC(N(C)c2cc3c(N[C@H](C)c4cccc(C#N)c4C)nnc(C)c3cn2)CC1", "recombinant human SOS1 polypeptide (amino acids 560-1049) (Homo sapiens)", 1.28),
    ("Cc1c(C#N)cccc1[C@@H](C)Nc1nnc(C)c2cnc(N3CCN(C)[C@H](C)C3)cc12", "recombinant human SOS1 polypeptide (amino acids 560-1049) (Homo sapiens)", 1.01),
    ("Cc1c(C#N)cccc1[C@@H](C)Nc1nnc(C)c2cnc(N3CC[C@H]4[C@@H]3CN4C)cc12 (single isomer, unassigned)", "recombinant human SOS1 polypeptide (amino acids 560-1049) (Homo sapiens)", 2.78),
    ("Cc1c(C#N)cccc1[C@@H](C)Nc1nnc(C)c2cnc(N3CCN(C)C[C@@H]3C)cc12", "recombinant human SOS1 polypeptide (amino acids 560-1049) (Homo sapiens)", 0.74),
    ("Cc1c(C#N)cccc1[C@@H](C)Nc1nnc(C)c2cc(F)c(N3CCN(C)C(C)(C)C3)cc12", "recombinant human SOS1 polypeptide (amino acids 560-1049) (Homo sapiens)", 1.42),
    ("Cc1c(C#N)cccc1[C@@H](C)Nc1nnc(C)c2cnc(C3CCN(C)CC3)cc12", "recombinant human SOS1 polypeptide (amino acids 560-1049) (Homo sapiens)", 8.89),
    ("CCN1C[C@@H]2C[C@H]1CN2c1cc2c(N[C@H](C)c3cccc(C#N)c3C)nnc(C)c2cn1", "recombinant human SOS1 polypeptide (amino acids 560-1049) (Homo sapiens)", 3.43),
    ("Cc1c(C#N)cccc1[C@@H](C)Nc1nnc(C)c2cnc(N3CCN(C)[C@@H](C)C3)cc12", "recombinant human SOS1 polypeptide (amino acids 560-1049) (Homo sapiens)", 1.62),
    ("Cc1nnc(N[C@H](C)c2cc(N)cc(C(F)(F)F)c2F)c2cc(N3CC4CC(C3)O4)ncc12", "recombinant human SOS1 polypeptide (amino acids 560-1049) (Homo sapiens)", 0.264),
    ("Cc1c([C@@H](C)Nc2nnc(C)c3ccc(N4CCOCC4)cc23)cc(N)nc1C(F)(F)F", "recombinant human SOS1 polypeptide (amino acids 560-1049) (Homo sapiens)", 2.91),
    ("Cc1nnc(N[C@H](C)c2cccc(C(F)(F)F)c2F)c2cc(N(C)C3CCN(C)CC3)c(F)cc12", "recombinant human SOS1 polypeptide (amino acids 560-1049) (Homo sapiens)", 1.2),
    ("Cc1c(C#N)cccc1[C@@H](C)Nc1nnc(C)c2cnc(N3CC[C@@H](N)C3)cc12", "recombinant human SOS1 polypeptide (amino acids 560-1049) (Homo sapiens)", 1.54),
]
